Test system: NOMO1
Experiment: AUC of viability dose-response curve (% viability x log10 dose units); higher = less sensitive
Conditions: HPLM + 10% dialyzed FBS; 48 h
For each record, write down the corresponding AUC of viability dose-response curve.
Numbers only.

Some entries whose results are on file:
CC1=CC=CC=C1CN2C(=O)C/3=C(/CCN(CC4=CC=CC=C4)C3)N\5CC\N=C25 : 388
CCCCCCCc1ccc(CCc2cccc(O)c2C(=O)O)cc1 : 472
CCOC(=O)[C@H](CCc1ccccc1)N[C@@H](C)C(=O)N1CCC[C@H]1C(=O)O : 453
CCOC(=O)N1CCN(/[N+]([O-])=N/Oc2ccc([N+](=O)[O-])cc2[N+](=O)[O-])CC1 : 462

Let's switch to this compound now.
// fetch NOMO1 AUC of viability dose-response curve for CCC[C@H](N[C@@H](C)C(=O)N1[C@H](C(=O)O)C[C@@H]2CCCC[C@@H]21)C(=O)OCC
394

----------
Tested on: P12-Ichikawa
Assay: cell viability relative to DMSO control; higher = less cytotoxic
Conditions: RPMI 5 mM glucose + 10% dialyzed FBS; 48 h; 5.12 µM
VALUE_KIND: cell viability
Respond with the figure and its unit, in that order.

COc1cc2c(Oc3ccc(NC(=O)C4(C(=O)Nc5ccc(F)cc5)CC4)cc3F)ccnc2cc1OCCCN1CCOCC1 : 14.7%
Oc1ccc(/C=C/c2cc(O)cc(O)c2)cc1 : 103%
CCOC(=O)[C@H](CCc1ccccc1)N[C@@H](C)C(=O)N1CCC[C@H]1C(=O)O : 104%
CC1(C)OC2CC3C4CC(F)C/5=C/C(=O)/C=C\C5(C)C4C(O)CC3(C)[C@@]2(O1)C(=O)CO (some centres not stated) : 50.8%
CC(C)(C)c1cc(C=C(C#N)C#N)cc(Br)c1O : 130%

// for each compound in input: emit cell viability
1. CCC(=O)OCC(=O)[C@@]1(OC(=O)CC)[C@@H](C)C[C@H]2[C@@H]3CCC4=CC(=O)C=C[C@]4(C)[C@@]3(F)[C@@H](O)C[C@@]21C
2. C[C@@H]1COCCN1C\2=C\C(=O)N\3CC[C@H](N(CC4=CN=CC(=C4)Cl)C3=N2)C(F)(F)F
3. CCOc1ccc(Nc2nc(-c3c(C)nc4ccccn34)cs2)cc1

1. 52.2%
2. 86%
3. 27.3%

Batch request: cell viability for each of the following compounds.
1. O=C(CO)N1CCC(c2n[nH]c(-c3ccc(Cl)cc3)c2-c2ccncn2)CC1
2. C\C1=C\C(=O)C2=C(C=CC=C2)C1=O

["97.7%", "120%"]

List cell viability for every entry below, keeping the order given.
1. C=CC1=C(C(=O)O)N2C(=O)[C@@H](NC(=O)/C(=N\O)c3csc(N)n3)[C@H]2SC1
2. O=C1Nc2ccc(Cl)cc2[C@@](C#CC2CC2)(C(F)(F)F)O1

115%
79.8%

----------
Test system: P12-Ichikawa
Assay: cell viability relative to DMSO control; higher = less cytotoxic
Details: HPLM + 10% dialyzed FBS; 48 h; 0.00702 µM
VALUE_KIND: cell viability (%)
One number for each entry, in %.

CC(=O)Nc1ccc([C@H](C)C(=O)Nc2ncc(C(C)C)s2)cc1 : 94.5

Please report cell viability for every entry that follows.
1. CCCCNc1cc(C(=O)O)cc([S+](N)(=O)[O-])c1Oc1ccccc1
2. COC[C@@H](NC(C)=O)C(=O)NCc1ccccc1
3. CC(=O)CC(C1=CC=CC=C1)C/2=C(O)/C3=CC=CC=C3OC2=O (stereo not given)
4. C=CC1=C(C(=O)O)N2C(=O)[C@@H](NC(=O)/C(=N\O)c3csc(N)n3)[C@H]2SC1

118
107
108
79.3

Source of measurements: the supplement of paper PMC11451515
